assay.system: human ether-à-go-go-related gene (hERG) potassium channel (human, UniProt Q12809);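 also: peak tail current of the secondary pulse compared with the same well before compound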
Sequence (Q12809 whole entry, looked up): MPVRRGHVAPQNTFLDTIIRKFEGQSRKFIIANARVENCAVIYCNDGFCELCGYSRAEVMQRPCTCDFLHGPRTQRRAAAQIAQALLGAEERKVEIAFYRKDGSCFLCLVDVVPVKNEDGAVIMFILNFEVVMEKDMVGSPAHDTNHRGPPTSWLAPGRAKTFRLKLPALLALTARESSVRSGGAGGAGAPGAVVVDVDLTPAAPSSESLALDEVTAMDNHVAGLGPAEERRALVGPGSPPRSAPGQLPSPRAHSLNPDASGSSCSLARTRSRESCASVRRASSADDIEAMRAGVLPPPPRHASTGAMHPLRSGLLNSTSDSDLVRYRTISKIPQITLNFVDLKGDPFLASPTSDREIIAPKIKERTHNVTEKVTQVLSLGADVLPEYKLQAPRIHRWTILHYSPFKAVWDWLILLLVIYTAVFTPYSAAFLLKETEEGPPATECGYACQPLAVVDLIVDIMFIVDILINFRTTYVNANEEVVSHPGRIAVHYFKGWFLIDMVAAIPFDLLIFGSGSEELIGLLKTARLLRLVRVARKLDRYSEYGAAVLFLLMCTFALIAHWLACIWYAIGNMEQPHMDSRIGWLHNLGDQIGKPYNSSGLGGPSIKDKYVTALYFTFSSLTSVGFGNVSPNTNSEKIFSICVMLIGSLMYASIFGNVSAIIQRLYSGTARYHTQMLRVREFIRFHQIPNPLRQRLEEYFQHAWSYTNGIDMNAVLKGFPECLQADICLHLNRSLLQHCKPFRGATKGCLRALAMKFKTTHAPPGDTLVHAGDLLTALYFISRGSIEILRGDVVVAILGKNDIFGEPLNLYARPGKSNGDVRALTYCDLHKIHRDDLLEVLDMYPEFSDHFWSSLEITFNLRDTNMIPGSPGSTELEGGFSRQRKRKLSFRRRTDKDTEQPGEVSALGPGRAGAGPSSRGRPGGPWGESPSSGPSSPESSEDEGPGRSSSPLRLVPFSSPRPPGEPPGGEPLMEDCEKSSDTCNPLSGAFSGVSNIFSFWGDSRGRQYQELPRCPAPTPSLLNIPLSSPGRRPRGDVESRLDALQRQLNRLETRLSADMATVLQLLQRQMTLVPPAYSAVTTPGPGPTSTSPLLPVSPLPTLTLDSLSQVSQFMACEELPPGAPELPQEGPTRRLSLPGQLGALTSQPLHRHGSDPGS
experimental.protocol: primary screen, population patch clamp on CHO cells stably expressing hERG; higher = less effect of the substance
About 14,000 (4.5%) of roughly 310,000 compounds showed an effect of 50% or more. The effect is printed as a negative number. The sample holds strong results, similar compounds and a random draw of the others, so the mix is not that of the screen.
Listing of recorded hERG current change (%, negative = inhibition) at 10uM by entry.
Unit % implied. Number only.

For orientation, consider the following solved cases.
C/C(CC(=O)Nc1cc(Cl)ccc1Cl)=N\NC(=O)c1ccco1 = -6.6
Cc1cc(=O)n(C)c(=O)n1CCCCCCN1CCCC1.O=C(O)C(=O)O = 8.96
Cc1cc(C)cc(NC(=O)CN2CCCN(S(=O)(=O)c3ccc(Br)s3)CC2)c1 = -6.01
Cc1n[nH]c(C)c1CCCCOc1ccc([N+](=O)[O-])cc1 = -16.4
CCn1c(SCC(=O)Nc2ccc(NC(=O)c3ccco3)c(OC)c2)nc2ccccc2c1=O = -20

May I ask what hERG current change (%, negative = inhibition) at 10uM has been recorded for `O=C(CN1CCN(S(=O)(=O)c2ccc(Cl)cc2)CC1)NC1CCCC1` ?
-50.2

May I ask what hERG current change (%, negative = inhibition) at 10uM has been recorded for `O=[N+]([O-])c1ccc(OCCOCCOc2ccc([N+](=O)[O-])cc2)cc1` ?
-16.6

May I ask what hERG current change (%, negative = inhibition) at 10uM has been recorded for `CCC/C(=N\NC(=O)c1ccc(CSc2nncn2C)cc1)c1ccccc1` ?
-8.28

May I ask what hERG current change (%, negative = inhibition) at 10uM has been recorded for `COc1ccc(NC(=O)CN2CCN(S(=O)(=O)c3ccc(C(C)C)cc3)CC2)cc1OC` ?
-66.5

May I ask what hERG current change (%, negative = inhibition) at 10uM has been recorded for `Cc1cc(=O)n(C)c(=O)n1CCCCCN1CCCC1.O=C(O)C(=O)O` ?
5.16

May I ask what hERG current change (%, negative = inhibition) at 10uM has been recorded for `CC(=O)Nc1ccc(OCc2cccc([N+](=O)[O-])c2)cc1` ?
8.84

May I ask what hERG current change (%, negative = inhibition) at 10uM has been recorded for `Cc1cc(=O)n(C)c(=O)n1CCCCCCOc1ccc([N+](=O)[O-])cc1` ?
-63.9
